Assayed system: Adenosine receptor A2a (Homo sapiens)
Sequence (P29274 whole entry): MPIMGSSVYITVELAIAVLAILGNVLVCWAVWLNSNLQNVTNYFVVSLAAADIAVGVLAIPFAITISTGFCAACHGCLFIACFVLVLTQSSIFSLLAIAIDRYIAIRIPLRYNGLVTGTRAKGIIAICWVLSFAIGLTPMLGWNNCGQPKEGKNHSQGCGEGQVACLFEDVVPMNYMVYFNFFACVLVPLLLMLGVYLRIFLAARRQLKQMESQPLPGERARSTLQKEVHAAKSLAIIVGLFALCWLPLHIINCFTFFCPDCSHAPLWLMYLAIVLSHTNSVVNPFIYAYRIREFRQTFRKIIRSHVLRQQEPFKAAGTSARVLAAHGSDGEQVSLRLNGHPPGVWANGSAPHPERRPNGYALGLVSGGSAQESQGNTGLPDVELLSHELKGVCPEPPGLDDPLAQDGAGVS
Assay: Antagonist activity at recombinant human adenosine A2A receptor expressed in CHO cells assessed as inhibition of NECA-induced cAMP production after 60 mins
Assay type: functional, cell-based
Applied conditions: read-out: IC50
pIC50: −log10 of the molar value.
This section presents compounds with their documented pIC50 values.

Consider the reported pIC50 for these compounds:
INSERT INTO assay_data (cpd_smiles, assayed_system, measured_metric, reported_value) VALUES
  ('Cn1cnc2c(N)nc(NCCc3ccc(O)cc3)nc21', 'Adenosine receptor A2a (Homo sapiens)', 'pIC50', '< 4.00'),
  ('CCn1c(=O)c2c(nc(/C=C/c3ccc(OCCCC(=O)NCCCCCCCCCCCC(=O)OC)c(OC)c3)n2C)n(CC)c1=O', 'Adenosine receptor A2a (Homo sapiens)', 'pIC50', '< 4.00');

Please turn your attention to the following entry.
Dear colleague, I am looking for the recorded pIC50 of the following compound: CCCC(=O)Oc1ccc(CCNc2nc(N)c3nc(-n4nccn4)n(C)c3n2)cc1
5.01
